Give hERG current change (%, negative = inhibition) at 10uM for every item shown.
target: human ether-à-go-go-related gene (hERG) potassium channel (human, UniProt Q12809); test: primary screen, population patch clamp on CHO cells stably expressing hERG; higher = less effect of the substance;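 further: peak tail current of the secondary pulse compared with the same well before compound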
Sequence (Q12809 whole entry, looked up): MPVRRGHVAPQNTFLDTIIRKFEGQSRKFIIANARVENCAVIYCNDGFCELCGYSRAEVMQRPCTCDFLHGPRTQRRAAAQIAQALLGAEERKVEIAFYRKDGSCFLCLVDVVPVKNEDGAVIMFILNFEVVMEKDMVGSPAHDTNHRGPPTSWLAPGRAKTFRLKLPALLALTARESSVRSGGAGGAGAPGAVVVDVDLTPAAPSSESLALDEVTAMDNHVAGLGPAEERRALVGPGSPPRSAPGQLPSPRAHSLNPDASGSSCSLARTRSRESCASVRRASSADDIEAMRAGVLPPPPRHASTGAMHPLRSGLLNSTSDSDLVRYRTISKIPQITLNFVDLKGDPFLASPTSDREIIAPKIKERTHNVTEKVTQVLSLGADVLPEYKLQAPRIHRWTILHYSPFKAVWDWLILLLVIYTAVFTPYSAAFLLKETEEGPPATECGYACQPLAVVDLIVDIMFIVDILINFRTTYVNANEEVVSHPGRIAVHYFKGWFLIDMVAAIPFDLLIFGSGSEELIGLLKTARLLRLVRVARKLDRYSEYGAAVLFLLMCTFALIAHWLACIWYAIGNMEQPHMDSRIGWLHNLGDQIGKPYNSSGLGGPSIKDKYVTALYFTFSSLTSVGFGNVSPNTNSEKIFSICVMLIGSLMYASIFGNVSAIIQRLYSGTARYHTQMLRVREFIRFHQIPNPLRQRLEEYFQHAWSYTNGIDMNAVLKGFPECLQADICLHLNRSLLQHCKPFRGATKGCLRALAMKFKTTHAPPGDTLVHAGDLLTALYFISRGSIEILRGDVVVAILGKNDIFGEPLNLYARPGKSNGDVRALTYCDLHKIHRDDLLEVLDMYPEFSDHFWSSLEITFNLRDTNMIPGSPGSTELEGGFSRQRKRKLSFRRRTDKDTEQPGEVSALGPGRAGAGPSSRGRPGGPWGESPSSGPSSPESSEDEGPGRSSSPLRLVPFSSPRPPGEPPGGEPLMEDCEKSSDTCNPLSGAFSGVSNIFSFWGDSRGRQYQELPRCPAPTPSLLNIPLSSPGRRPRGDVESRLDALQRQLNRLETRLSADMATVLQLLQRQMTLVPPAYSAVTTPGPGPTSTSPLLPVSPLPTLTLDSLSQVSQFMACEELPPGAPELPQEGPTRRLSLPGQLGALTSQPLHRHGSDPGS
In all, about 310,000 compounds went through this assay and about 14,000 (4.5%) showed an effect of 50% or more. The effect is printed as a negative number. The entries come from a sample that favours strong results as a whole.
One number for each entry, in %.

Given the entry "CCn1c(COc2cccc(OC)c2)nnc1SCC(=O)Nc1cccc(OC)c1" , report its measured hERG current change (%, negative = inhibition) at 10uM.
-41.1

Given the entry "N#C/C(=C/c1ccc2c(c1)OCO2)C(=O)Nc1ccc(O)cc1" , report its measured hERG current change (%, negative = inhibition) at 10uM.
-0.516

Given the entry "Br.Cc1ccccc1Cn1c(=N)n(CC(=O)c2ccc([N+](=O)[O-])cc2)c2ccccc21" , report its measured hERG current change (%, negative = inhibition) at 10uM.
-32.6

Given the entry "O=C1C=C(O)c2cccc3cccc1c23" , report its measured hERG current change (%, negative = inhibition) at 10uM.
28.3

Given the entry "Cc1ccn2c(-c3n[nH]c(=S)n3C)c(C)nc2c1" , report its measured hERG current change (%, negative = inhibition) at 10uM.
19.6

Quick one: give me hERG current change (%, negative = inhibition) at 10uM for each item below, same order please.
1. O=C(O)c1ccccc1NCCO
2. Br.CCCCn1c(=N)n(CC(=O)c2ccc(OC)cc2)c2ccccc21

[33.8, -73.6]

Quick one: give me hERG current change (%, negative = inhibition) at 10uM for each item below, same order please.
1. COc1ccccc1NC(=O)C1CCCCN1S(=O)(=O)c1ccc(F)cc1 (stereo not drawn)
2. CCCN(CCC(=O)Nc1cc(OC)cc(OC)c1)CC1CC1.Cl
3. CN(C)CCCNc1ccc(S(N)(=O)=O)cc1[N+](=O)[O-]
4. CCOc1ccc(NC(=O)CSCC(=O)O)cc1
5. CN(CC(=O)Nc1ccccc1Br)C(=O)c1cccn1C

[-27.9, -12.1, -13.1, 1.8, 16.2]
